target: TCP pilus virulence regulatory protein (Vibrio cholerae serotype O1 (strain ATCC 39541 / Classical Ogawa 395 /O395)) (UniProt A5F384); test: Inhibition of Vibrio cholerae wild type ToxT-mediated transcription of ctx promoter at 50 uM
Sequence (A5F384 whole entry): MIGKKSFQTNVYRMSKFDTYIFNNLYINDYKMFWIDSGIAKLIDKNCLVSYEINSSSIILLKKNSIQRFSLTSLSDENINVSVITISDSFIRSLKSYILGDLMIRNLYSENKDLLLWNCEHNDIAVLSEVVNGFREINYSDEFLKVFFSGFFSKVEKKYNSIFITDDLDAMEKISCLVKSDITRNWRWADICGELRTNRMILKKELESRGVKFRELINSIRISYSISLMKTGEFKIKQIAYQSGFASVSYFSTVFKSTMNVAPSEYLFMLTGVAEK
Active and inactive are the calls of the source. No cut-off for these calls is given here.
Attribute measured: Activity

Field: example entries. Status: answers known.
1. COC(=O)CCCN1C(=O)c2cccc3cccc(c23)C1=O; Active
2. O=C(O)C1CCCC(N2C(=O)c3cccc4cccc(c34)C2=O)C1 (stereo not given); Active
3. O=C(O)CN1C(=O)c2cccc3cccc(c23)C1=O; Active
4. O=C(O)CCN1C(=O)c2cccc3cccc(c23)C1=O; Active

If you can, please state the reported Activity value of "O=C(O)CCCN1C(=O)c2cccc3cccc(c23)C1=O" .
Active
